FYI, the data here is from patent US10300026B2.

Test system: A2780
Assay overview: CellTiter-Glo cell viability, A2780 (human ovarian cancer cell line)
Format: cell-based
Assay conditions: Homo sapiens, A2780, 72 h, read-out: IC50 calculated based on the concentration of dihydroxyacetone
Attribute measured: IC50 (mM)
Give bare numbers, in mM.

Query: # query: IC50 of entry O=C(CO)CO [Dihydroxyacetone, 1,3-dihydroxyacetone]
Response: 10.6

---

System: SW620
Assay overview: CellTiter-Glo cell viability, SW620 (human colon cancer cell)
Format: cell-based
Assay conditions: SW620; 72 hours; n=4; read-out: IC50
Attribute measured: IC50 (µM)
Give bare numbers, in µM.

Query: Find the recorded IC50 belonging to N.N.[Cl][Pt][Cl] [DDP, cis-diammine platinum dichloride, reference compound] and report it.
Response: 24.4

---

Tested on: WIL2-S
Assay overview: CellTiter-Glo cell viability, WIL2-S (human B lymphocyte)
Format: cell-based
Assay conditions: Homo sapiens, Lymphocyte, 72 h, read-out: IC50 calculated based on the concentration of dihydroxyacetone
Attribute measured: pIC50
Answers are plain numbers, as −log10 of the molar value.

Query: May I ask what pIC50 has been recorded for O=C(CO)CO [Dihydroxyacetone, 1,3-dihydroxyacetone] ?
Response: 1.92

---

Test system: S180
Assay overview: CellTiter-Glo cell viability, S180 (S180 sarcoma cells)
Assay type: cell-based
Assay conditions: S-180, 72 h, read-out: IC50 calculated based on the concentration of dihydroxyacetone
Attribute measured: IC50 (µM)
Give bare numbers, in µM.

Query: Would you kindly share the measured IC50 for O=C(CO)CO [Dihydroxyacetone, 1,3-dihydroxyacetone] ?
Response: 950

---

Tested on: A549
Assay overview: CellTiter-Glo cell viability, A549 (human non-small cell lung cancer cell)
Assay type: cell-based
Assay conditions: Homo sapiens, A549, 72 h, read-out: IC50 calculated based on the concentration of dihydroxyacetone
Attribute measured: IC50

Query: Can you share its IC50? I mean this compound: O=C(CO)CO [Dihydroxyacetone, 1,3-dihydroxyacetone]
Response: 4.39 mM

---

Test system: A431
Assay overview: CellTiter-Glo cell viability, A431 (human cutaneous squamous cell carcinoma)
Format: cell-based
Assay conditions: A431; 72 hours; n=4; read-out: IC50
Attribute measured: IC50
Answers without a unit are incomplete; give the number and then its unit.

Query: Fill in: IC50 of N.N.[Cl][Pt][Cl] [DDP, cis-diammine platinum dichloride, reference compound] is ___
Response: 9.29 µM

---

Test system: SMMC-7721
Assay overview: CellTiter-Glo cell viability, SMMC-7721 (human hepatoma cell line)
Assay type: cell-based
Assay conditions: SMMC-7721; 72 hours; n=4; read-out: IC50
Attribute measured: pIC50
One number for each entry, as −log10 of the molar value.

Query: // lookup pIC50 for N.N.[Cl][Pt][Cl] [DDP, cis-diammine platinum dichloride, reference compound]
Response: 5.21

---

Tested on: SMMC-7721
Assay overview: CellTiter-Glo cell viability, SMMC-7721 (human hepatoma cell line)
Type: cell-based
Assay conditions: Homo sapiens, SMMC-7721, 72 h, read-out: IC50 calculated based on the concentration of dihydroxyacetone
Attribute measured: pIC50
Give bare numbers, as −log10 of the molar value.

Query: # lookup: pIC50 of O=C(CO)CO [Dihydroxyacetone, 1,3-dihydroxyacetone]
Response: 2.29

---

Test system: SW480
Assay overview: CellTiter-Glo cell viability, SW480 (human colorectal cancer cell)
Assay type: cell-based
Assay conditions: Homo sapiens, SW480, 72 h, read-out: IC50 calculated based on the concentration of dihydroxyacetone
Attribute measured: pIC50
Numbers only, as −log10 of the molar value.

Query: Given the entry O=C(CO)CO [Dihydroxyacetone, 1,3-dihydroxyacetone] , what pIC50 was observed with SW480?
Response: 2.10
